Target Under Test: Acetylcholinesterase, enzyme from human erythrocytes (Homo sapiens, UniProt P22303)
Construct: on the enzyme from human erythrocytes; from tissue; host or cells: human erythrocytes
Sequence (P22303-2 with tags, fused parts or gaps limits assumed): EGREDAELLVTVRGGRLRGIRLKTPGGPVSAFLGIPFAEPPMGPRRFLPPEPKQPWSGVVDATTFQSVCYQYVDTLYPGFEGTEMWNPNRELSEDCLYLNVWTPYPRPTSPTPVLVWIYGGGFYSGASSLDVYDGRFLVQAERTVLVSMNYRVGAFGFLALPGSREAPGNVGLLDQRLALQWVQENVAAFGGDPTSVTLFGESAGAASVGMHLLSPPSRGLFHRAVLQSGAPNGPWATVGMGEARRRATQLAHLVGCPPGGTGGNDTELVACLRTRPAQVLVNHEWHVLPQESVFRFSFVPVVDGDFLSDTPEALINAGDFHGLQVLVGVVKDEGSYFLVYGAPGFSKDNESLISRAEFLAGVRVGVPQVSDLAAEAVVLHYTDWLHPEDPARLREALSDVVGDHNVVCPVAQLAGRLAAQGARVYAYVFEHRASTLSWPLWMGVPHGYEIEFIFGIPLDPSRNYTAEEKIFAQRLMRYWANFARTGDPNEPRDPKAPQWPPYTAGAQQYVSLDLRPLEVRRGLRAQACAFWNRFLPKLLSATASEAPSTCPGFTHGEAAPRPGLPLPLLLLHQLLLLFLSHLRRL
Assay Procedure: Acetylcholinesterase inhibition, spectrophotometric technique of Ellman
Type: biochemical
Test Context: Acetylcholinesterase inhibition IC50 (M), enzyme from human erythrocytes; Table 5
# key: entry, value: log10 IC50
Log10 applied to IC50; unit prior to transform: M.

[[record]]
compound = "CC1(C)C=Cc2c(nc3ccccc3c2N)C1"
measurement_type = "log10 IC50"
reported_value = -7.12

[[record]]
compound = "CC(C)Nc1c2c(nc3ccccc13)CC(C)(C)CC2=O"
measurement_type = "log10 IC50"
reported_value = -5.22

[[record]]
compound = "CCCNc1c2c(nc3ccccc13)CC(C)(C)CC2=O"
measurement_type = "log10 IC50"
reported_value = -5.52

[[record]]
compound = "Cc1ccc(CNc2c3c(nc4ccccc24)CC(C)(C)CC3O)c(C)c1 (stereo not shown) [VIj]"
measurement_type = "log10 IC50"
reported_value = -5.60

[[record]]
compound = "Cc1ccc(C)c2c(N)c3c(nc12)CC(C)(C)CC3=O"
measurement_type = "log10 IC50"
reported_value = -4.89


// returns reported log10 IC50 for input CC1(C)C=Cc2c(nc3ccccc3c2NCc2ccc(Cl)cc2)C1
-8.22

// returns reported log10 IC50 for input Cc1ccc2nc3c(c(N)c2c1)C(=O)CC(C)(C)C3
-4.52

// returns reported log10 IC50 for input CC1(C)CC(=O)c2c(nc3ccc(Br)cc3c2N)C1
-4.30

// returns reported log10 IC50 for input Cc1cccc2c(N)c3c(nc12)CC(C)(C)CC3=O
-6.20

// returns reported log10 IC50 for input CCN(CC)CCNc1c2c(nc3ccccc13)CC(C)(C)CC2=O
-4.30

// returns reported log10 IC50 for input CCNc1c2c(nc3ccccc13)CC(C)(C)CC2=O
-5.77

// returns reported log10 IC50 for input CC1(C)CC(=O)c2c(nc3ccccc3c2N)C1
-5.46

// returns reported log10 IC50 for input CNc1c2c(nc3ccccc13)CC(C)(C)CC2=O
-6.40
